B1: library; a variant is named by its letters at N, in order (parent)
chain: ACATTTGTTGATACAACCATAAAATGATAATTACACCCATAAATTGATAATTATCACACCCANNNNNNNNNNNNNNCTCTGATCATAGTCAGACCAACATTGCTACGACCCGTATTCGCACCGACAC

# Variants of: B1
# assayProtocol: relative integration efficiency (T-LR orientation) vs wild-type transposon end (log2 (normalized fold change)); transposon end mutated: right end (5 bp flank + 75 bp right end); higher = more efficient transposition
# experimentalContext: with VchCAST RNA-guided transposition machinery (E. coli BL21(DE3) host, lacZ target)
readout: relative integration efficiency (log2)
Number, no unit, nothing else.

Form: variant = TATTTTGATATTGC ; relative integration efficiency (log2) = 0.19

Form: variant = TAAATTGATATTGC G46T ; relative integration efficiency (log2) = -0.734

Form: variant = ATTTAACTATAACG A23T ; relative integration efficiency (log2) = 1.95

Form: variant = TAAATTGATATTGC A27C ; relative integration efficiency (log2) = -0.281

Form: variant = TAAATTTATATTGC ; relative integration efficiency (log2) = 1.7

Form: variant = TCCCGTGATATTGC ; relative integration efficiency (log2) = 2.35

Form: variant = TCCATTGATATTGC ; relative integration efficiency (log2) = 2.16

Form: variant = ATTTAACTATAACG G46C ; relative integration efficiency (log2) = 1.05

Form: variant = TAAATTGATATTGC T20G ; relative integration efficiency (log2) = -1.12

Form: variant = TAAATTGATATTGC A11C ; relative integration efficiency (log2) = -0.681

Form: variant = TAAATTGATATTGC A47G ; relative integration efficiency (log2) = -0.453

Form: variant = TCAATTGATATTGC ; relative integration efficiency (log2) = 2.16

Form: variant = TAAATTGATATTGC A21T ; relative integration efficiency (log2) = -0.217

Form: variant = ATTTAACTATAACG T45A ; relative integration efficiency (log2) = 1.93

Form: variant = TAAATTGATATTCC ; relative integration efficiency (log2) = -0.146

Form: variant = TAATTTGATATTGC ; relative integration efficiency (log2) = 0.241

Form: variant = TAAATTGATATTGC A11T ; relative integration efficiency (log2) = -0.678

Form: variant = ATTTAACTATAACG T40C ; relative integration efficiency (log2) = 1.2

Form: variant = TAAATTGATCTTGC ; relative integration efficiency (log2) = 0.816

Form: variant = TAAATTGATATTGC A42T ; relative integration efficiency (log2) = -0.0993

Form: variant = TAAATTGATATTGC T80G ; relative integration efficiency (log2) = 0.0082

Form: variant = TAAATTGATAAAGC ; relative integration efficiency (log2) = 0.622

Form: variant = ATTTAACTATAACG T31G ; relative integration efficiency (log2) = 2.54

Form: variant = TAAATTGATATTGC A53T ; relative integration efficiency (log2) = -0.318

Form: variant = TAAATTGATATTGC T25C ; relative integration efficiency (log2) = -0.488

Form: variant = TAAATTGATATTGC C2T ; relative integration efficiency (log2) = 0.0698

Form: variant = TAAATTGATATTGC C14T ; relative integration efficiency (log2) = 0.0199

Form: variant = ATTTAACTATAACG A39G ; relative integration efficiency (log2) = 2.47

Form: variant = TAAATTGATATTGC ; relative integration efficiency (log2) = -0.0165

Form: variant = TAAATTGATATTAC ; relative integration efficiency (log2) = 0.0276

Form: variant = TAAATTGATATTGC C17A ; relative integration efficiency (log2) = -0.331

Form: variant = TAAATTGATATTGC G7C ; relative integration efficiency (log2) = -1.41

Form: variant = TAAATTGATATTGC A49C ; relative integration efficiency (log2) = -0.614

Form: variant = ATTTAACTATAACG A33C ; relative integration efficiency (log2) = 2.34

Form: variant = TAAATTGATATTGC C59A ; relative integration efficiency (log2) = -0.0286

Form: variant = ATTTAACTATAACG C55T ; relative integration efficiency (log2) = 2.56

Form: variant = TAAATTGATATTGC A1G ; relative integration efficiency (log2) = -0.251

Form: variant = TAAATTGATATTGC G26C ; relative integration efficiency (log2) = -1.36

Form: variant = ATTTAACTATAACG C34A ; relative integration efficiency (log2) = 2.11

Form: variant = TAAATTGATAGTGC ; relative integration efficiency (log2) = 0.754

Form: variant = TAAATTGATATTGC C55A ; relative integration efficiency (log2) = 0.402

Form: variant = ATTTAACTATAACG T20G ; relative integration efficiency (log2) = 0.721

Form: variant = TAAATTGATATTGC C37T ; relative integration efficiency (log2) = -0.304

Form: variant = TAAATTGATATTGC G10T ; relative integration efficiency (log2) = -1.93

Form: variant = TAAATTGATATTGC A15T ; relative integration efficiency (log2) = -0.624

Form: variant = ATTTAACTATAACG A22C ; relative integration efficiency (log2) = 1.21

Form: variant = TAAATTGATATTGC T9C ; relative integration efficiency (log2) = 0.331

Form: variant = TAAATTGATAATTA ; relative integration efficiency (log2) = 0.0298

Form: variant = TAAATTGATATTGC C77G ; relative integration efficiency (log2) = -0.217

Form: variant = ATTTAACTATAACG A27T ; relative integration efficiency (log2) = 1.74

Form: variant = ATTTAACTATAACG A11T ; relative integration efficiency (log2) = 2.19

Form: variant = TTTTATGATATTGC ; relative integration efficiency (log2) = 0.744

Form: variant = TAAATTGATATTGC G46A ; relative integration efficiency (log2) = -0.642

Form: variant = ATTTAACTATAACG A41C ; relative integration efficiency (log2) = 1.39

Form: variant = TACCGGGATATTGC ; relative integration efficiency (log2) = 2.28

Form: variant = TAAAATGATATTGC ; relative integration efficiency (log2) = 0.274

Form: variant = TAAATTGATATTGC T9A ; relative integration efficiency (log2) = -0.234

Form: variant = ATTTAACTATAACG A42C ; relative integration efficiency (log2) = 1.03

Form: variant = TAAATTGATATTGC A16C ; relative integration efficiency (log2) = 0.0173

Form: variant = ATTTAACTATAACG A24C ; relative integration efficiency (log2) = 2.28

Form: variant = ATTTAACTATAACG A58C ; relative integration efficiency (log2) = 2.86

Form: variant = TAAATTGATATTGC T31A ; relative integration efficiency (log2) = 0.0674

Form: variant = TAAATTGATTATGC ; relative integration efficiency (log2) = 0.414

Form: variant = TAAATTGATATTGC A13T ; relative integration efficiency (log2) = 0.0619

Form: variant = TAAATTGATATTGC T28C ; relative integration efficiency (log2) = -0.203

Form: variant = TAAATTGATATTGC A58C ; relative integration efficiency (log2) = 1.05

Form: variant = TAAATTGATATTGC C18T ; relative integration efficiency (log2) = -0.605

Form: variant = TAAATTGATATTGC C2A ; relative integration efficiency (log2) = 0.336

Form: variant = ATTTAACTATAACG T20C ; relative integration efficiency (log2) = 1.3

Form: variant = TAAATTGATATTGC A41G ; relative integration efficiency (log2) = -0.399

Form: variant = TAAATTGATATTGC T78C ; relative integration efficiency (log2) = -0.0349

Form: variant = ATTTAACTATAACG G7C ; relative integration efficiency (log2) = 1.24

Form: variant = TAAATTGATATTGC C34T ; relative integration efficiency (log2) = -0.474

Form: variant = TAAATTGATACTGC ; relative integration efficiency (log2) = 0.177

Form: variant = ATTTAACTATAACG T54C ; relative integration efficiency (log2) = 2.37

Form: variant = TAAATTGATAGGTA ; relative integration efficiency (log2) = 1.09

Form: variant = TAAAGTGATATTTA C59A ; relative integration efficiency (log2) = -0.17

Form: variant = ATTTAACTATAACG A49C ; relative integration efficiency (log2) = 2.17

Form: variant = ATTTAACTATAACG T40G ; relative integration efficiency (log2) = 0.496

Form: variant = TAAATTGATTAACC ; relative integration efficiency (log2) = 1.35

Form: variant = ATTTAACTATAACG A53C ; relative integration efficiency (log2) = 2.49

Form: variant = ATTTAACTATAACG A22G ; relative integration efficiency (log2) = 1.36

Form: variant = TAAATTGATATTGC C59G ; relative integration efficiency (log2) = 0.747

Form: variant = ATTTAACTATAACG A58T ; relative integration efficiency (log2) = 2.39

Form: variant = TAAATTGATATTGC C36T ; relative integration efficiency (log2) = -0.179

Form: variant = TAAATTCTTATTGC ; relative integration efficiency (log2) = 2.36

Form: variant = TAAATTGATATTGC A30T ; relative integration efficiency (log2) = -0.0553

Form: variant = TAAATTGATATTGC C34G ; relative integration efficiency (log2) = -0.479

Form: variant = ATTTAACTATAACG A62C ; relative integration efficiency (log2) = 2.22

Form: variant = ATTTAACTATAACG A50G ; relative integration efficiency (log2) = 2.18

Form: variant = ATTTAACTATAACG T52A ; relative integration efficiency (log2) = 2.3
